Each record here notes measured log10(IC50).
Target: D-alanyl-D-alanine dipeptidase (Enterococcus faecium, UniProt Q06241)
Sequence (Q06241 whole entry): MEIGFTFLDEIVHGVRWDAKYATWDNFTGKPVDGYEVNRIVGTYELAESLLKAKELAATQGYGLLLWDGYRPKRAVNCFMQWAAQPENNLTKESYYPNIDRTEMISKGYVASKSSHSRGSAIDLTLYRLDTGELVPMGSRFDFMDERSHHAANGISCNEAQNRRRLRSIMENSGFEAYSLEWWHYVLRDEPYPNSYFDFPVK
Experiment: Inhibition of Enterococcus faecium VanX overexpressed in Escherichia coli BL21 (DE3) cells using D-ala-D-ala as substrate preincubated for 30 mins measured after 150 secs by modified Cd-ninhydrin method
readout kind: log10(IC50) (log10 of the value in µM)

• C[C@H](N)P(=O)(O)OCC(=O)O = 2.68
• CC(C)[C@@H](OP(=O)(O)[C@H](C)N)C(=O)O = 3.45
• CC[C@H](C)[C@@H](OP(=O)(O)[C@H](C)N)C(=O)O = 3.12
• CC(C)C[C@@H](OP(=O)(O)[C@H](C)N)C(=O)O = 3.03
• C[C@H](N)P(=O)(O)O[C@H](Cc1ccccc1)C(=O)O = 3.91

---

Target: D-alanyl-D-alanine dipeptidase (Enterococcus faecium, UniProt Q06241)
Test: Competitive inhibition of Enterococcus faecium VanX overexpressed in Escherichia coli BL21 (DE3) cells using D-ala-D-ala as substrate preincubated for 3 mins measured after 150 secs by modified Cd-ninhydrin method
readout kind: IC50 (µM)

- C[C@H](N)P(=O)(O)O[C@H](C)C(=O)O: 760
